Task for the reader: assign each of the following compounds its reported melting point.

State the recorded melting point for every item in the following list.
1. Cc1ccc(-c2c(C(=O)O)n(CCCBr)c(=O)c3ncccc23)cc1
2. CC(C)CC(NC(=O)c1ccccc1)C(=O)NC(CCCN(C(=N)NC(=O)OCc1ccccc1)C(=O)OCc1ccccc1)C(=O)Oc1cccc2ccccc12 (configuration not stated)

Result:
["194 to 196 °C", "178 to 187 °C"]

----------
For each record, write down the corresponding melting point.

Some entries whose results are on file:
>  <compound>
CCCCCCCCn1nnc(C(C(=O)Nc2c(OC)cc(OC)cc2OC)c2ccccc2)n1 (stereo not drawn)

>  <val>
113 to 116 °C

$$$$
>  <compound>
CC1CN(c2cccc(Cl)n2)N=C1N (stereo not drawn)

>  <val>
175 to 176 °C

$$$$

Data point: Nc1nc(N)c2cc(Cc3ccc(Cl)c(Cl)c3)ccc2n1 ; melting point = 150 to 151 °C

----------
readout_kind: melting point

Batch of 7 compounds: report melting point for each.
1. COc1cccc(CC(=O)O)c1OCCCc1cn(-c2ccc(NS(C)(=O)=O)cn2)nc1C(C)C
2. COc1ccc(CCC(=O)Nc2c(C)c(C)c3c(c2C)C(c2ccc(C(C)C)cc2)CO3)cc1 (stereo not drawn)
3. COc1ccc(CONC(=O)c2nc(-c3ccc(Cl)c(OC)c3F)cc(N)c2Cl)cc1
4. Nc1nnc(C(=O)OCc2ccccc2)s1
5. O=[N+]([O-])C(=CC(O)C(=C1NCCN1Cc1ccc(Cl)nc1)[N+](=O)[O-])C1=NCCN1Cc1ccc(Cl)nc1 (stereo not drawn)
6. CCCc1nc(SC)c(C(O)(C(=O)O)C(C)C)n1Cc1ccc(-c2ccccc2S(=O)(=O)NC(=O)NCc2ccccc2)cc1 (stereo not drawn)
7. OCCCc1nc(-c2ccccc2)co1

Result:
["176 to 177 °C", "119 to 120 °C", "142 to 145 °C", "198 to 200 °C", "157 to 162 °C", "180 °C", "55 to 56 °C"]

Required: melting point, one value per compound below.
1. NC(=O)c1nnn(Cc2ccc(Sc3ccc(Cl)cc3)c(Cl)c2)c1N
2. Cc1cccc(COc2cccc(OCc3cc(=O)c4ccccc4n3C)c2)c1OCC(=O)O
3. CC(=O)Oc1cc(N2C(=O)CC(SC3CCCCC3)C2=O)ccc1C(=O)O (stereo not drawn)
4. CCCCCCCCOC(=O)COc1cc(F)ccc1C(=O)NCc1cccc([N+](=O)[O-])c1
5. CCC1(C)CC2(NC(=O)N(C)C2=O)C(C)C(C)(CC)N1 (stereo not drawn)

Result:
["202 to 204 °C", "192 to 194 °C", "155 to 158 °C", "72 to 74 °C", "137 to 142 °C"]

Quick request: melting point for each listed item, please.
1. CC[C@@H](c1ccccc1)N(Cc1ccc(C(=O)O)c(F)c1)S(=O)(=O)c1ccc(Cl)cc1
2. CCc1nc2c(n1Cc1ccc(-c3ccccc3)cc1)C(=O)N(C)CN2c1ccc(Cl)cc1Cl

Result:
95 to 97 °C
216 to 217 °C

----------
Hi there, I'd appreciate the recorded melting point for every entry that follows.

Here's what some known entries look like.
>  <compound>
O=C(O)C1Oc2cc(Cl)c(S(=O)(=O)c3cccc(F)c3)cc2O1 (stereo unspecified)

>  <melting point>
161 to 163 °C

$$$$
>  <compound>
Cc1cc(C)c2c(c1C)C(C(=O)O)=C(Cl)C2=O

>  <melting point>
194 °C

$$$$
>  <compound>
O=C(OCc1ccccc1)c1ccc2[nH]ccc2c1

>  <melting point>
127 to 129 °C

$$$$
>  <compound>
CCOC(=O)[C@H](Cc1cccc(Oc2ccc(O)cc2)c1)NC(=O)C(F)(F)F

>  <melting point>
109 to 111 °C

$$$$

Batch request: melting point for each of the following compounds.
1. Nc1cc(=O)n(Cc2ccc(-c3ccccc3)cc2)[nH]1
2. CN1CCN(c2cccc3c2ccn3S(=O)(=O)c2ccc(F)cc2)CC1

Result:
1. 185 to 186 °C
2. 151 to 152 °C

----------
readout_kind: melting point

>  <structure>
CNCc1nnc2n1-c1ccc(Cl)cc1C(c1ccccc1)=NC2

>  <val>
152 to 156 °C

$$$$
>  <structure>
Cn1cncc1[N+](=O)[O-]

>  <val>
58 to 60 °C

$$$$
>  <structure>
O=C1Nc2ccccc2CN(c2ccccc2)N1

>  <val>
283 to 286 °C

$$$$

Then this molecule:
// field: melting point; key: COc1cc(OC)nc(-n2nc(C)oc2=O)n1 ; value = 158 °C

----------
I'd be grateful if you could share measured melting point for these entries.

Worked cases, melting point given:
>  <structure>
CS(=O)(=O)c1ccc(-c2nnc(Oc3ccc(F)cc3F)cc2-c2ccc(Cl)cc2)cc1

>  <melting point>
115 to 117 °C

$$$$
>  <structure>
O=C(c1ccc(F)c(Cl)c1)N1CCC(F)(CNCc2ccc(CF)cn2)CC1

>  <melting point>
157 to 159 °C

$$$$

For every item in the list below, what is its measured melting point?
1. CN1CCN(c2nccc(Oc3ccc(NC(=O)c4cc(F)cc(N5CCCCC5)c4)c4ccccc34)n2)CC1
2. CCN(CC)c1nc2ccnn2c2ncccc12

Result:
182 to 184 °C
102 °C

----------
readout_kind: melting point

>  <compound>
Nc1nc(=O)n(-c2ccsc2)cc1F

>  <melting point>
228 to 229 °C

$$$$
>  <compound>
CC(=O)Oc1ccc(-c2cc(=O)c3cccnc3o2)cc1

>  <melting point>
167 to 169 °C

$$$$
>  <compound>
COC(=O)C[C@H](C(=O)OC)N1C(=O)[C@@H](N2C(=O)c3ccccc3C2=O)[C@H]1C=Cc1ccccc1

>  <melting point>
138 to 140 °C

$$$$
>  <compound>
Clc1cccnc1-c1cc(OCCc2ccccn2)c2[nH]nc(Br)c2c1

>  <melting point>
> 250 °C

$$$$

Give melting point for each listed item.
1. CCOC(=O)c1cn(C2CC2)c2c(OC(F)F)c(Br)ccc2c1=O
2. O=C(Nc1cccc2cc(Br)cnc12)c1ccc(O)c(O)c1O

Result:
1: 253 °C; 2: 183 to 193 °C

State recorded melting point for all listed compounds.
1. CC(C)(C)OC(=O)N(CCCCCCN1C(=O)c2ccccc2C1=O)CCN(CCCCCCN1C(=O)c2ccccc2C1=O)C(=O)OC(C)(C)C
2. CC(=O)NC1CCC2=C(CC1)C(=O)CC=C2 (centres undefined)
3. CNN(C)C(=S)Nc1ccc(Cl)cc1

Result:
["96 °C", "115 to 116 °C", "103 to 104 °C"]

----------
readout_kind: melting point (°C)
One number for each entry, in °C.

>  <structure>
O=C1NC(N2CCCCCC2)=N/C1=C\c1c[nH]c2ncc(C(F)(F)F)cc12

>  <readout_kind>
melting point

>  <val>
340

$$$$

Proceeding to the next molecule to report its melting point.
Memo: COc1ccc(C(=O)c2cccc(F)c2)cc1C(=O)O , reported melting point: 200

----------
Exercise: for every item that follows, state its recorded melting point.

Dear colleague, could you send me melting point for each of the items below? Thanks.
1. COC(=O)CNC(=O)n1ccc(O)cc1=O
2. O=P(O)(O)C1(P(=O)(O)O)CCCN1
3. CC(=O)c1ccc(S(=O)(=O)NCCCn2ccnc2)cc1

Result:
1: 124 to 126 °C; 2: 80 °C; 3: 142 to 144 °C

----------
I'd be grateful if you could share measured melting point for these entries.

>  <compound>
CC12CCC3c4cc(O)c(OCc5ccccc5)cc4CCC3C1CCC2OCc1ccccc1 (configuration not stated)

>  <melting point>
117 to 118 °C

$$$$

# per-item lookup of melting point; items listed below
1. Cc1cc(F)ccc1[C@@H]1CN(C2=CC(=O)CC2)CC[C@H]1C(=O)N(C)Cc1cc(C(F)(F)F)cc(C(F)(F)F)c1 (relative stereo)
2. COc1ccc2[nH]c3c(C(=O)Nc4ccc(CCCCN(C)CCc5ccc(OC)c(OC)c5)cc4)cccc3c(=O)c2c1
3. CC(C(=O)O)c1ccc2nc(-c3ccc(Cl)cc3)oc2c1 (configuration not stated)
4. COc1c(C)cc2c(c1C)Cc1c-2[nH]c2ccc(C(C)C)cc12
5. N#Cc1ccc([C@@H]2[C@@H]3C(=O)N(Cc4ccc5c(c4)OCO5)C(=O)[C@@H]3[C@H]3CCCN32)cc1 (racemic)
6. COC(=O)c1ccc(O)cc1NC(=O)C=Cc1ccc(-c2ccccc2)cc1
7. CON(C)C(=O)Nc1cccc(OC(C)C(N)=S)c1 (configuration not stated)

Result:
1. 192 to 193 °C
2. 155 °C
3. 188 to 191 °C
4. 130 °C
5. 61 to 63 °C
6. 292 to 296 °C
7. 95 to 96 °C

The origin of these recorded values is a melting point compilation (Tetko et al.; mined from patent text by program, amines drawn as free bases though some values may be those of a salt).
